system: S. Pyogenes Cook
// reported MIC per item

compound: CCC(=O)O[C@H]1[C@H](C)O[C@@H](O[C@H]2[C@H](N(C)C)[C@@H](O)[C@H](O[C@H]3[C@@H](CC=O)C[C@@H](C)[C@@H](O)/C=C/C=C/C[C@@H](C)OC(=O)C[C@@H](O)[C@@H]3OC)O[C@@H]2C)C[C@@]1(C)O [LM-A7, leucomycin A7, reference compound]
MIC: 0.1 µg/mL

compound: CCCCO[C@H]1[C@H](C)O[C@@H](O[C@H]2[C@H](N(C)C)[C@@H](O)[C@H](O[C@H]3[C@@H](CC=O)C[C@@H](C)[C@@H](O)/C=C/C=C/C[C@@H](C)OC(=O)C[C@@H](OC(=O)CC)[C@@H]3OC)O[C@@H]2C)C[C@@]1(C)OC
MIC: 0.2 µg/mL

compound: CCC(=O)O[C@@H]1CC(=O)O[C@H](C)C/C=C/C=C/[C@H](O)[C@H](C)C[C@H](CC=O)[C@H](O[C@@H]2O[C@H](C)[C@@H](O[C@H]3C[C@@](C)(OC)[C@@H](OCCC(C)C)[C@H](C)O3)[C@H](N(C)C)[C@H]2O)[C@H]1OC
MIC: 0.1 µg/mL

compound: CCCCO[C@H]1[C@H](C)O[C@@H](O[C@H]2[C@H](N(C)C)[C@@H](O)[C@H](O[C@H]3[C@@H](CC=O)C[C@@H](C)[C@@H](O)/C=C/C=C/C[C@@H](C)OC(=O)C[C@@H](O)[C@@H]3OC)O[C@@H]2C)C[C@@]1(C)OC
MIC: 0.1 µg/mL
